# system.under.test: Sho1, P40073
# Sequence (P40073 287-367): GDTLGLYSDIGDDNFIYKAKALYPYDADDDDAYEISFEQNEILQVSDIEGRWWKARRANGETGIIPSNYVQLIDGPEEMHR
# assay.protocol: SPOT array
# condition.details: median of control spots 1148
endpoint.label: SPOT intensity

binder	endpoint.label	reported
VQKRKLPLPGSIASA	SPOT intensity	11

1. LYEAMPPTLPHRDWK
2. LKVTPGRRAPTISKI
3. DLFKPLPEPPTELGR
Request: Please list these in order of increasing SPOT intensity. Thank you! Give your ranking as a list of the labels in the requested order.
Response: 1, 2, 3
(1: 0, 2: 72, 3: 1320)

a. AERNYAPRLPRRETS
b. GKKVRPLLVLLLSRA
c. RTIRKLPLMSLSEYF
Request: Please list these in order of increasing SPOT intensity. Thank you! Give your ranking as a list of the labels in the requested order.
Response: c, a, b
(c: 6, a: 32, b: 51)
